# tgt: Recombinant full length human OGA enzyme (Homo sapiens, UniProt O60502)
# Construct: Recombinant full length human OGA enzyme was purchased from Origene
# Sequence (O60502 1-916): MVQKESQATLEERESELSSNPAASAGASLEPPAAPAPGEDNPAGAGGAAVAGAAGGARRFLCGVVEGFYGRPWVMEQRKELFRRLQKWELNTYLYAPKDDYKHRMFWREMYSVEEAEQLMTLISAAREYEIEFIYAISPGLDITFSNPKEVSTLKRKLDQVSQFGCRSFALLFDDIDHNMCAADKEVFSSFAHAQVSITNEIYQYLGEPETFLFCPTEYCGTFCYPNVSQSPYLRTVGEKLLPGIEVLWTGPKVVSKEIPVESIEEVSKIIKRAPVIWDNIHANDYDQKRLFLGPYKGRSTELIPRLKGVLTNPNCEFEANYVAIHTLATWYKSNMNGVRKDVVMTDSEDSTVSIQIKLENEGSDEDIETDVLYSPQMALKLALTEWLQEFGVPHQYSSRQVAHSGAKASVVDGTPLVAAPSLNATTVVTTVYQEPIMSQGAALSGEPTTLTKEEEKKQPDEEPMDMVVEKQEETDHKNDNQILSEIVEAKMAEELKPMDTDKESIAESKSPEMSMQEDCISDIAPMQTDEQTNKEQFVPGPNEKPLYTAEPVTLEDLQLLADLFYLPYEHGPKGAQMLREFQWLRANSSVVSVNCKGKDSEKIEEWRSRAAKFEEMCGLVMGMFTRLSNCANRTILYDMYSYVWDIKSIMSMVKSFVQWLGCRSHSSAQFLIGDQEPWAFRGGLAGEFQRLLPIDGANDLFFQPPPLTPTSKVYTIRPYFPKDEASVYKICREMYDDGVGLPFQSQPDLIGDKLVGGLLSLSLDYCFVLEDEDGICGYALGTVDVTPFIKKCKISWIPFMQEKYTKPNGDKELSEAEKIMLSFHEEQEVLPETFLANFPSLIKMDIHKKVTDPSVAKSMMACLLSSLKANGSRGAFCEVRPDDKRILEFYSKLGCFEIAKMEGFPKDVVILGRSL
# protocol.notes: OGA enzyme inhibition biochemical assay
# settings: 1 nM OGA, 100 μM 4-MUGlcNAc (Km), pH 6.4, 90 minutes at room temperature, 10-point dose-response from 20 μM
# Procedure: N-(5-(((2S,4R)-4-([1,2,4]triazolo[4,3-a]pyrazin-3-yloxy)-2-methylpyrrolidin-1-yl)methyl)-4-fluorothiazol-2-yl)acetamide: The title compound was prepared in an analogous manner as Example 172 from 3-bromo-[1,2,4]triazolo[4,3-a]pyrazine. LCMS (ESI): [M+H] […] Recombinant full length human OGA enzyme was purchased from Origene. […] Reactions were incubated for 90 minutes at room temperature and quenched with 40 μl of 3M glycine, pH 10 and read on a Perkin Elmer Envision plate reader (Ex: 355 nm/Em: 460 nm). […]
pIC50: −log10 of the molar value.
The following molecules are shown together with reported pIC50 values.
measured.endpoint: pIC50

1. CC(=O)Nc1nc(F)c(CN2C[C@H](Oc3cccc4nccn34)C[C@@H]2C)s1 ... > 9.00
2. CC(=O)Nc1nc(F)c(CN2C[C@H](Oc3ccc4ncnn4c3C)C[C@@H]2C)s1 ... > 9.00
3. CC(=O)Nc1ncc(CN2C[C@H](Oc3cc4nccn4cn3)C[C@@H]2C)s1 ... > 9.00
4. CC(=O)Nc1ncc(CN2C[C@H](Oc3ncnc4cc(OC(F)F)ccc34)C[C@@H]2C)s1 ... > 9.00
5. CC(=O)Nc1nc(F)c(CN2C[C@H](Oc3nccc4occc34)C[C@@H]2C)s1 ... 8.92
6. CC(=O)Nc1nc(F)c(CN2C[C@H](Oc3ccc4ccnn4c3)C[C@@H]2C)s1 ... > 9.00
7. CC(=O)Nc1nc(F)c(CN2C[C@H](Oc3ccc4nn(C(F)F)cc4n3)C[C@@H]2C)s1 ... > 9.00
8. CC(=O)Nc1ncc(CN2C[C@H](Oc3cnc4nc(C)oc4c3)C[C@@H]2C)s1 ... > 9.00
9. CC(=O)Nc1nc(F)c(CN2C[C@H](Oc3ccnc4nn(C)cc34)C[C@@H]2C)s1 ... > 9.00
10. CC(=O)Nc1nc(F)c(CN2C[C@H](Oc3ccnc4cn(C)nc34)C[C@@H]2C)s1 ... > 9.00
11. CC(=O)Nc1nc(F)c(CN2C[C@H](Oc3ncnc4cccnc34)C[C@@H]2C)s1 ... 8.59
12. COc1ccc2ccc(O[C@@H]3C[C@H](C)N(Cc4sc(NC(C)=O)nc4F)C3)nc2n1 ... > 9.00
13. CC(=O)Nc1nc(F)c(CN2C[C@H](Oc3cccn4ccnc34)C[C@@H]2C)s1 ... > 9.00
14. CC(=O)Nc1ncc(CN2C[C@H](Oc3ccc4nnc(C(F)(F)F)n4n3)C[C@@H]2C)s1 ... > 9.00
15. CC(=O)Nc1nc(F)c(CN2C[C@H](Oc3ccnc4cc(F)cnc34)C[C@@H]2C)s1 ... > 9.00
16. CC(=O)Nc1ncc(CN2C[C@H](Oc3cccn4ccnc34)C[C@@H]2C)s1 ... > 9.00
17. CC(=O)Nc1nc(F)c(CN2C[C@H](Oc3cnc4nncn4c3)C[C@@H]2C)s1 ... > 9.00
18. CC(=O)Nc1nc(F)c(CN2C[C@H](Oc3cnc4nccn4c3)C[C@@H]2C)s1 ... > 9.00
19. CC(=O)Nc1nc(F)c(CN2C[C@H](Oc3nn4ccnc4s3)C[C@@H]2C)s1 ... > 9.00
20. COc1nc(O[C@@H]2C[C@H](C)N(Cc3sc(NC(C)=O)nc3F)C2)cc2cc(F)ccc12 ... > 9.00
21. CC(=O)Nc1nc(F)c(CN2C[C@H](Oc3ncc4ccn(C)c4n3)C[C@@H]2C)s1 ... > 9.00
22. CC(=O)Nc1ncc(CN2C[C@H](Oc3nccc4ccsc34)C[C@@H]2C)s1 ... > 9.00
23. CC(=O)Nc1ncc(CN2C[C@H](Oc3cccc4cn(C)nc34)C[C@@H]2C)s1 ... > 9.00
24. CC(=O)Nc1nc(F)c(CN2C[C@H](Oc3cccc4nnnn34)C[C@@H]2C)s1 ... > 9.00
25. COc1cc2c(O[C@@H]3C[C@H](C)N(Cc4sc(NC(C)=O)nc4F)C3)ncnc2cc1F ... 8.74
26. CC(=O)Nc1ncc(CN2C[C@H](Oc3cc(C(F)(F)F)c4cn(C)nc4n3)C[C@@H]2C)s1 ... > 9.00
27. CC(=O)Nc1ncc(CN2C[C@H](Oc3cccc4cnn(C)c34)C[C@@H]2C)s1 ... 8.62
28. CC(=O)Nc1nc(F)c(CN2C[C@H](Oc3ccnc4ccnn34)C[C@@H]2C)s1 ... 8.42
29. CC(=O)Nc1nc(F)c(CN2C[C@H](Oc3cccc4nn(C)cc34)C[C@@H]2C)s1 ... > 9.00
30. CC(=O)Nc1ncc(CN2C[C@H](Oc3nc4ccccc4cc3C)C[C@@H]2C)s1 ... 8.26
31. CC(=O)Nc1nc(F)c(CN2C[C@H](Oc3nccc4nccn34)C[C@@H]2C)s1 ... > 9.00
32. CC(=O)Nc1nc(F)c(CN2C[C@H](Oc3cnc4ccnn4c3)C[C@@H]2C)s1 ... > 9.00
33. CC(=O)Nc1ncc(CN2C[C@H](Oc3ncnc4occc34)C[C@@H]2C)s1 [Example 73] ... > 9.00

* * *

# tgt: Recombinant full length human OGA enzyme (Homo sapiens, UniProt O60502)
# Construct: Recombinant full length human OGA enzyme was purchased from Origene
# Sequence (O60502 1-916): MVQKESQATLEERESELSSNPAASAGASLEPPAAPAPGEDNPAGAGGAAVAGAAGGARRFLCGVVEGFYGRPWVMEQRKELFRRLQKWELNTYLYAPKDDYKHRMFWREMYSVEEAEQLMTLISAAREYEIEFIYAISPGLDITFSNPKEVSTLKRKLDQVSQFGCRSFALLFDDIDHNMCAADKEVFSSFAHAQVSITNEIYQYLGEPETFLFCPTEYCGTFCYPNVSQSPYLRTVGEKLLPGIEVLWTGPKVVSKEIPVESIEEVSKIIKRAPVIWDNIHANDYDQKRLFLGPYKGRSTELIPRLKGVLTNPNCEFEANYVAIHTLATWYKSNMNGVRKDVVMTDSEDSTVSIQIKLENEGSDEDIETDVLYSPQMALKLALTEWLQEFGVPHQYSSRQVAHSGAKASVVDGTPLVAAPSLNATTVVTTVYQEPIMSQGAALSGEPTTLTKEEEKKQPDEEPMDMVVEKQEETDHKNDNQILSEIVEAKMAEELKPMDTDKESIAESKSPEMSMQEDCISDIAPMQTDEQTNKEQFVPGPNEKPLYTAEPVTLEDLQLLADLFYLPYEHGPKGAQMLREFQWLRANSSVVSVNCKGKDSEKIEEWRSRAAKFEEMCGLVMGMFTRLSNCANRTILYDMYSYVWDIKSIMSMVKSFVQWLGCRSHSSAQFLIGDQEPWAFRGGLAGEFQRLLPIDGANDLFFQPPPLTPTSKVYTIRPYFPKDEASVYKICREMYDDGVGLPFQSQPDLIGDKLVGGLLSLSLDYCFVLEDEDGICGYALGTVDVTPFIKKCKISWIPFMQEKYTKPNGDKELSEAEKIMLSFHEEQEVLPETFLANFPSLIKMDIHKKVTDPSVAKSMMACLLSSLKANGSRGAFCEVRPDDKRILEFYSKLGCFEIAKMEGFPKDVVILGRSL
# protocol.notes: OGA enzyme inhibition biochemical assay
# settings: 1 nM OGA, 100 μM 4-MUGlcNAc (Km), pH 6.4, 90 minutes at room temperature, 10-point dose-response from 20 μM
# Protocol: N-(5-(((2S,4R)-4-([1,2,4]triazolo[4,3-a]pyrazin-3-yloxy)-2-methylpyrrolidin-1-yl)methyl)-4-fluorothiazol-2-yl)acetamide: The title compound was prepared in an analogous manner as Example 172 from 3-bromo-[1,2,4]triazolo[4,3-a]pyrazine. LCMS (ESI): [M+H] […] Recombinant full length human OGA enzyme was purchased from Origene. […] Reactions were incubated for 90 minutes at room temperature and quenched with 40 μl of 3M glycine, pH 10 and read on a Perkin Elmer Envision plate reader (Ex: 355 nm/Em: 460 nm). […]
# if measured IC50 < 4 nM: Criterion met  # else: Criterion not met

1. CC(=O)Nc1ncc(CN2C[C@H](Oc3ccc4ncoc4c3)C[C@@H]2C)s1 ... Criterion met
2. CC(=O)Nc1ncc(CN2C[C@H](Oc3ccnc4ccccc34)C[C@@H]2C)s1 ... Criterion met
3. CC(=O)Nc1ncc(CN2C[C@H](Oc3cnc4cc(F)c(F)cc4n3)C[C@@H]2C)s1 ... Criterion met
4. CC(=O)Nc1ncc(CN2C[C@H](Oc3nccc4ccc(C)cc34)C[C@@H]2C)s1 ... Criterion not met
5. CC(=O)Nc1nc(F)c(CN2C[C@H](Oc3noc4cc(F)ccc34)C[C@@H]2C)s1 ... Criterion met
6. CC(=O)Nc1ncc(CN2C[C@H](Oc3ncnc4cc(F)c(F)cc34)C[C@@H]2C)s1 ... Criterion not met
7. CC(=O)Nc1nc(F)c(CN2C[C@H](Oc3ccn4nc(C)nc4c3)C[C@@H]2C)s1 ... Criterion met
